Task for the reader: assign each of the following compounds its reported pEC50.
Tested on: dopamine release from synaptosomes of the striatal area of rat brain
Format: biochemical, rat (Sprague-Dawley)
Answers are plain numbers, as −log10 of the molar value.

Reference set, count: 4
COc1cncc(/C=C/CCN)c1 [Sample No. 3] :: 5.40
CNCC/C=C/c1ccc(C)nc1 [Sample No. 6] :: 6.66
CNCCC#Cc1cccnc1 [Sample No. 4] :: 5.08
CNCC/C=C\c1cccnc1 [Sample No. 5, (Z)-metanicotine] :: 4.95

Give pEC50 for each listed item.
1. CNCC/C=C/c1cccnc1 [Sample No. 8, (E)-metanicotine]
2. CN1CCC[C@H]1c1cccnc1 [Sample No. C-1, (S)-(-)-nicotine, reference compound]
3. CNCC/C=C/c1cncnc1 [Sample No. 2]
4. NCC/C=C/c1cncnc1.O=C(O)/C=C/C(=O)O [Sample No. 1, monofumarate]

Result string:
[5.83, 6.94, 5.24, 5.36]

----------
System: ganglionic-type neuronal nicotinic receptors (rat pheochromocytoma clonal line PC 12)
Assay: Interaction with ganglia: 86Rb+ efflux in PC12 cells
Type: cell-based
Threshold 4 % nicotine. Ganglion Effect (% nicotine) below it: MET. Ganglion Effect (% nicotine) at it or above: NOT MET.

CNCC/C=C/c1cncnc1 :: MET
CNCCCCc1cccnc1 :: NOT MET
CNCCC#Cc1cccnc1 :: NOT MET

Query string: Just wondering, is Ganglion Effect (% nicotine) of COc1cncc(/C=C/CCN)c1 below 4 % nicotine?
Result string: MET
